target: D1R (Vaccinia virus); experiment: Complete GTase reaction, vaccinia virus GTase; assay type: biochemical
MEASUREMENT TYPE: pIC50
As a rule, pIC50 stands for the negative log10 of the concentration, concentration in M.

Which pIC50 is listed for NC(=O)c1ncn([C@@H]2O[C@H](COP(=O)(O)O)[C@@H](O)[C@H]2O)c1O [MZP, Mizoribine monophosphate] ?
3.30

* * *

target: A103R (Paramecium bursaria Chlorella virus 1, UniProt Q84424); format: biochemical, Chlorella virus (PBCV-1)
Sequence (Q84424 whole entry, stated change not applied): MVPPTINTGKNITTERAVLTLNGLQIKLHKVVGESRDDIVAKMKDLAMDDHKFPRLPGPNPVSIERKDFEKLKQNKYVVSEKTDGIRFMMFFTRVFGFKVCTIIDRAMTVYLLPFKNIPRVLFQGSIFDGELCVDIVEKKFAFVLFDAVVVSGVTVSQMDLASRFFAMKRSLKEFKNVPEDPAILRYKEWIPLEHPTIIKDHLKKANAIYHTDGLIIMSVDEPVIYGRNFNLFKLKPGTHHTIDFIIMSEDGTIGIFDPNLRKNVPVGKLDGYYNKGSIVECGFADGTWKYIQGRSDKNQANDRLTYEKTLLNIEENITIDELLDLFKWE
MEASUREMENT TYPE: IC50 (µM)
Provide the reading as a plain figure in µM.

Request the reported IC50 associated with NC(=O)c1ncn([C@@H]2O[C@H](COP(=O)(O)O)[C@@H](O)[C@H]2O)c1O [MZP, Mizoribine monophosphate]
2000

* * *

target: UniProtKB P04298; assay: Enzyme-GMP (EpG) complex formation, vaccinia virus GTase; format: biochemical
MEASUREMENT TYPE: pIC50
Please keep in mind that pIC50 is minus log10 of the molar concentration; only the number is needed.

Quick one: pIC50 for NC(=O)c1ncn([C@@H]2O[C@H](COP(=O)(O)O)[C@@H](O)[C@H]2O)c1O [MZP, Mizoribine monophosphate] ?
2.52
